Where do the numbers come from? From PubChem BioAssay (NCI).

// values below are reported growth
- Tested on: SN12C renal
- protocolDetails: NCI-60 one-dose screen, 48 h (100 = growth as untreated, 0 = no growth, -100 = all killed)
- setupConditions: 10 µM unless noted
The panel holds about 83,000 compounds, 20% with a hit somewhere; the sample as a whole holds those more often.
reportedEndpoint: growth (%)

[[record]]
compound = "Oc1cc(Nc2ccnc3cc(Cl)ccc23)c2ncccc2c1"
reportedendpoint = "growth"
endpointunit = "%"
measuredresult = 79.3

[[record]]
compound = "CN(C)Cc1ccc[nH]1"
reportedendpoint = "growth"
endpointunit = "%"
measuredresult = 70.4

[[record]]
compound = "CCCc1cc2cc(-n3nc(C)c4c3CC(C)(C)CC4=O)cc(NC3CCSCC3)c2c(=O)[nH]1"
reportedendpoint = "growth"
endpointunit = "%"
measuredresult = 39.8

[[record]]
compound = "O=C1CC(c2ccc3c(c2)OCO3)Nc2ccccc21 (configuration not stated)"
reportedendpoint = "growth"
endpointunit = "%"
measuredresult = 34.4

[[record]]
compound = "Cc1ccc(NC(=S)/N=c2/n(-c3ccccc3)nc3n2CCN3C2=NCCN2)cc1"
reportedendpoint = "growth"
endpointunit = "%"
measuredresult = 100

[[record]]
compound = "Cc1nc(Cl)c2c(n1)N(C)c1ccc(Cl)cc1C(C)C2 (configuration not stated)"
reportedendpoint = "growth"
endpointunit = "%"
measuredresult = 86.6

[[record]]
compound = "N#CCCc1c[nH]c2ccccc12"
reportedendpoint = "growth"
endpointunit = "%"
measuredresult = 101

